B1: tRNA (parent)
chain: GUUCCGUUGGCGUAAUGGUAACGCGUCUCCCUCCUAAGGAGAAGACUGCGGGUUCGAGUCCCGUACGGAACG

- Variants of: B1
- MEASUREMENT_PROTOCOL: yeast fitness relative to wild type (ratio to wild type); higher = fitter; tRNA-Arg(CCU), competitive growth, 37 C, YPD
Variants at the floor of the assay were thinned out.
Label satisfied when yeast fitness >= 0.7; otherwise not satisfied.

Field: example entries. Status: answers known.
**Query** For this variant, is measured yeast fitness 0.7 or higher? G23C A45U A65C
**Result** not satisfied

**Query** Hi, just wondering whether C4G C31A C33G G51C G52A C60G shows yeast fitness of 0.7 or higher.
**Result** not satisfied

**Query** Is it the case that C5U A21G C29U C31A G51C has yeast fitness reaching or exceeding 0.7?
**Result** not satisfied

**Query** Please check the record U26A A37G C66A and state if its yeast fitness is at or above 0.7.
**Result** not satisfied

**Query** Confirm if yeast fitness reported for the variant C33G A57U A70U is 0.7 or above.
**Result** not satisfied

**Query** Please indicate if the recorded yeast fitness for C34G G51C meets or exceeds 0.7.
**Result** not satisfied

More entries:
**Query** Is yeast fitness for U8A C11A G56C at or above 0.7?
**Result** not satisfied

**Query** Check if yeast fitness >= 0.7 (inclusive). Item: G9C U16G A20G
**Result** satisfied

**Query** Is it the case that A36G A42G has yeast fitness reaching or exceeding 0.7?
**Result** satisfied

**Query** Is reported yeast fitness greater than or equal to 0.7 here: G9A G10A U28A G39A G48A C61G C66G
**Result** not satisfied

**Query** Please indicate if the recorded yeast fitness for C22U G63A meets or exceeds 0.7.
**Result** satisfied

**Query** Is it the case that A15G C24A C46A has yeast fitness reaching or exceeding 0.7?
**Result** not satisfied
